Would you kindly list inhibition for each of these compounds?
# Target under test: L-lactate dehydrogenase (Plasmodium falciparum (isolate CDC / Honduras))
# Assay remarks: PfLDH activity inhibition – cell lysate, 3D7 strain, counter-screen for P. falciparum growth inhibition project (AID 2304);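 note: 0% = vehicle and 100% = reference inhibitor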
# Condition notes: P. falciparum 3D7 crude extract, LDH APAD/NBT absorbance; at 2 µM; stronger effect = higher value
Give bare numbers, in %.

Example cases with answers are listed next.
- Compound: "COc1ccc(NS(=O)(=O)c2ccc(C(=O)Nc3ccc(OC(F)(F)F)cc3)cc2)cc1N1CCN(CC2CC2)CC1"
  inhibition / %: 3
- Compound: "Cc1cccc(Cl)c1S(=O)(=O)N1CCCCC(c2ccc(C(F)(F)F)cc2)=N1"
  inhibition / %: 1
- Compound: "CC(C)CN(C)Cc1ccc(-c2ccc(-c3nc4ccccc4[nH]3)s2)cc1"
  inhibition / %: 2
- Compound: "CCOc1ccc(C(C)NC(=O)C2COc3ccccc3O2)cc1OCC (centres undefined)"
  inhibition / %: 1
- Compound: "CN1CCC(N(C)C(=O)C=Cc2cn(-c3ccccc3)nc2-c2cc3ccccc3o2)CC1"
  inhibition / %: 2

Hi there! I need inhibition for each item below, if you can.
1. COc1ccc(Cn2ccc3c4c(N)nc(N)nc4ccc32)cc1
2. CC(C)CCN=C(N)Nc1ccc(OCCCOc2ccc(NC(N)=NCCC(C)C)cc2)cc1
3. C[C@@H]1CN(c2cnn(Cc3ccc(NC(=O)Nc4ccc(-c5ccccc5)cc4)cc3)c(=O)c2Cl)C[C@H](C)N1
4. Cc1cccc2[nH]c(-c3ccc(-c4ccc(NC(=O)NCc5cccc(F)c5)cc4)cc3)nc12

Out:
7
-3
-3
7
